- targetOfAssay: UniProtKB P19327
- Sequence (P19327 whole entry): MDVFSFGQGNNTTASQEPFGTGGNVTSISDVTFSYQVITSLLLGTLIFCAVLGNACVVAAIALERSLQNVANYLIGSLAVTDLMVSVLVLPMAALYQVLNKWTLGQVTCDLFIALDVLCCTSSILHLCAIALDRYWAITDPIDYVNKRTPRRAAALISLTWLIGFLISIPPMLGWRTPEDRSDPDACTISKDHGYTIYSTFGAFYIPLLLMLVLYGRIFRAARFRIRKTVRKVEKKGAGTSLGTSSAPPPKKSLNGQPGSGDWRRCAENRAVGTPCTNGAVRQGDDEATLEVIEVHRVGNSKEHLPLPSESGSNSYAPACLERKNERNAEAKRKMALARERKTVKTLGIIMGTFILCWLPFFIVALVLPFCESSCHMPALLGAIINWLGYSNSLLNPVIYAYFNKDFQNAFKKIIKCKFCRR
experimentalEndpoint: pKi
# pKi is unitless: minus log10 of the molar concentration; print number only

Reading of pKi for `Cl.O=C(NCc1ccc2c(c1)OCO2)[C@H]1Cc2c(sc3ccccc23)CN1` with UniProtKB P19327: 7.27
